For each of the compounds below, state its inhibition.
- measurement_target: Mannose-6-phosphate isomerase (Homo sapiens) (UniProt P34949)
- Sequence (P34949 whole entry, looked up): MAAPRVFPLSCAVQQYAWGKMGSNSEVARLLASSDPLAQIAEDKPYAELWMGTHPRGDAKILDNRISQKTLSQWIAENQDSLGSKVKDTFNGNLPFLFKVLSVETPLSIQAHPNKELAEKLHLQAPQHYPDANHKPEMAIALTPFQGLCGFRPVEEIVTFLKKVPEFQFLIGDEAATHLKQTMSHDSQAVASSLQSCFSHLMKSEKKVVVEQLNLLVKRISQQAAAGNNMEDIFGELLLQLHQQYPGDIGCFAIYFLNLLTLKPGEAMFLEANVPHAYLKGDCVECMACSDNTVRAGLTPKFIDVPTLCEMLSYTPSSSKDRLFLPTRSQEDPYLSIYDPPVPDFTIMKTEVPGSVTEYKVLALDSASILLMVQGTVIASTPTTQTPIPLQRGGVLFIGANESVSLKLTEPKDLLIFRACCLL
- protocol_description: inhibitors of human PMI, primary screen, biochemical, fluorescence intensity, coupled assay (AID 1209);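 note: plate controls were DMSO vehicle for no effect and wells lacking substrate for full effect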
- stated_conditions: purified PMI enzyme, at 20 µM, hits give high values
Hit rate of the full screen: of about 190,000 compounds, about 810 (0.43%) were called active. What follows is part of a selection rich in actives, with near analogues and random picks from the rest.
Reply with just the number (in %).

Would you kindly share the measured inhibition for O=C(Nc1nc(-c2ccccc2)cs1)C1COc2ccccc2O1 (centres undefined) ? 9.1

Another compound to look at: "O=C(Nc1ccccc1OC(F)F)c1ccccc1" 10.6

Moving on to the next compound: "Cc1cc2cc(C)c3nnc(SCC(=O)N4CCCc5ccccc54)n3c2cc1C" 12.3

And for "COc1cccc(C(=O)OCC(=O)NCCc2ccccc2)c1OC" ? -5.9

Consider next the compound O=C(Nc1nc(-c2ccncc2)cs1)C1COc2ccccc2O1 (centres undefined) in the same way. 61.7

Try the compound "Cn1cnc2ccc([N+](=O)[O-])cc2c1=O" -6

Then "Cn1c(=O)cc(-c2ccccc2)c2ccccc21" ? 1.5

Please give the result for CCc1nn(C(C)C(=O)N2CCN(Cc3ccccc3)CC2)c(=O)c2cc3occc3n12 (centres undefined) too. 16.5

Then what about the compound "CCN(CCNC(=O)C1CCN(S(=O)(=O)c2cccc3cccnc23)CC1)c1ccccc1" ? 8.4

// next record CCOC(=O)C1CC(c2ccccc2)=NNC1=O (centres undefined) -6.5

Now consider "O=c1cc(-c2ccccc2)c2ccccc2[nH]1" . 9.9

Same lookup for "Cc1ncc(CO)c(/C=N/NC(=O)c2ccc(Br)cc2)c1O" , please. 15.7

Same question for "Cc1ccc(C(=O)Nc2ccccc2OC(F)F)cc1" please. -0.1

Next record, please: "COc1ccc(OC)c(S(=O)(=O)Nc2cccc(C(C)=O)c2)c1" 4.2

Source of measurements: PubChem BioAssay AID1209
